System: IL-2
protocolDetails: PHA-IL2 (cell activation and cytokine analysis)
Type: cell-based
measurementParameters: 50% inhibition concentration class
From the text: Cells to be tested may include, but are not limited to, a) Jurkat (a transformed human T cell leukemia), b) whole blood isolated from human or rodent sources, c) peripheral blood mononuclear cells (PBMC) freshly isolated from human or rodent whole blood, or d) purified fractions of PBMC (e.g., CD4 T cells). […] Cytokines to be analyzed may include IL-2, IL-4, IL-10, IL-17, IL-22, IFNγ, and/or TNFα. […]
assayEndpoint: IC50

Lab note: IL-2 assay, enter IC50 for `Cc1cc(F)ncc1-c1ccccc1OCC(=O)N1CCC(CCc2ccc3c(c2)OCO3)CC1` here
10 to 50 µM

// fetch IC50; item: O=C(C1CC1c1ccccc1-c1ccc(F)cc1O)N1CCC(CCc2ccccc2)CC1 (stereo not shown) ; system: IL-2
< 1 µM

For IL-2, give IC50 of the listed compound: `COC(=O)c1ccc(CCC2CCN(C(=O)COc3ccccc3-c3ccccc3)CC2)cc1`
< 1 µM

For IL-2, give the measured IC50 of the entry `N#Cc1ccc(-c2cc(C#N)ccc2OCC(=O)N2CCC(CCc3ccc4c(c3)OCO4)CC2)cc1`
< 1 µM

Please respond with reported IC50 (system IL-2) for `COc1ccc(-c2ccccc2OCC(=O)N2CCC(CCc3ccc4c(c3)OCO4)CC2)cc1` .
1 to 10 µM
